Just for reference, patent US12594349B2 is where these values come from.

# Test system: human PCSK9 locus
# Experiment Description: Secreted PCSK9 by ELISA in Huh7 cells transfected with mRNA and gRNA
# Type: cell-based
# Recorded Conditions: Huh7 cells, LTRP5-ADD-ZIM3 mRNA, 50 ng mRNA:25 ng gRNA, day 6, relative to non-targeting gRNA control
Measurement Type: Percent reduction in PCSK9 secretion (%)
Give bare numbers, in %.

Observe how each entry below is paired with its result.
Substance	Target System	Percent reduction in PCSK9 secretion [%]
TG-06-124 (guide CAGUAUCGACAGCCCUUCCA; listed as RNA, chemistry not given here)	human PCSK9 locus	79.9
TG-06-155 (guide GCAGCGACGUCGAGGCGCUC; listed as RNA, chemistry not given here)	human PCSK9 locus	64.21
TG-06-117 (guide ACUUUGUUUGCAAAGACCUC; listed as RNA, chemistry not given here)	human PCSK9 locus	16.16
Non-targeting (guide CGAGACGTAATTACGTCTCG; chemistry not given here)	human PCSK9 locus	0
TG-06-159 (guide GCGCGCCCCUUCACGCGCCC; listed as RNA, chemistry not given here)	human PCSK9 locus	35.4

Parameter requested: Percent reduction in PCSK9 secretion. Apply to each item below.
1. TG-06-120 (guide CUCGGAAUCUGCUGUGCAUC; listed as RNA, chemistry not given here)
2. TG-06-122 (guide CCUUUGUUUCUUCCCAGUAU; listed as RNA, chemistry not given here)
3. TG-06-126 (guide CCUUUUCAUCCUCCUGCCUG; listed as RNA, chemistry not given here)

[73.95, 3.54, 71.46]

Need Percent reduction in PCSK9 secretion for each of these substances.
1. TG-06-147 (guide GUGUUUCCUGGGUCCACCUU; listed as RNA, chemistry not given here)
2. TG-06-119 (guide GAGCAGGCCAUUUCACUCGG; listed as RNA, chemistry not given here)
3. TG-06-168 (guide GUGGGAAGGUUCGCGGGGUU; listed as RNA, chemistry not given here)
4. TG-06-167 (guide CACUGAAUAGCGCAGCCGCA; listed as RNA, chemistry not given here)
5. TG-06-145 (guide UGGGUCCACCUUGUCUCCUG; listed as RNA, chemistry not given here)
6. TG-06-169 (guide CGGGGUUGGGAGACCCGGAG; listed as RNA, chemistry not given here)

1. 34.85
2. 14.47
3. 76.78
4. 51.93
5. 80.8
6. 19.3

Batch lookup, Percent reduction in PCSK9 secretion per entry.
1. TG-06-127 (guide UCCUCCUGCCUGGUACACAA; listed as RNA, chemistry not given here)
2. TG-06-118 (guide GAGUGAAAUGGCCUGCUCUG; listed as RNA, chemistry not given here)
3. TG-06-139 (guide AGGAGCAGCUAGUUGGUAAG; listed as RNA, chemistry not given here)
4. TG-06-131 (guide UGAACAUGGUGUGUAAAAGG; listed as RNA, chemistry not given here)
5. TG-06-153 (guide GUUAAUGUUUAAUCAGAUAG; listed as RNA, chemistry not given here)
6. TG-06-154 (guide AGGGUGUGGGUGCUUGACGC; listed as RNA, chemistry not given here)
7. TG-06-123 (guide UCCCAGUAUCGACAGCCCUU; listed as RNA, chemistry not given here)
8. TG-06-141 (guide ACUGGCCUUAACCUGGCAGC; listed as RNA, chemistry not given here)

[72.56, 56.86, 81.73, 65.48, 10.99, 91.65, 62.95, 83.16]

###

Field: Secreted PCSK9. Provide a value for each of the substances that follow.
# System: human PCSK9 locus
# Experiment Description: Secreted PCSK9 by ELISA in Huh7 cells transfected with mRNA and gRNA
# Assay type: cell-based
# Recorded Conditions: Huh7 cells, LTRP5-ADD-ZIM3 mRNA + gRNA scaffold 316, 25 ng mRNA:12.5 ng gRNA, 6 days post-transfection, normalized to total cell count
One number for each entry, in ng/mL.

Substance	Measurement Type	Endpoint Value
TG-06-129 (guide UUUUACACACCAUGUUCAAG; listed as RNA, chemistry not given here)	Secreted PCSK9	90.82
TG-06-144 (guide GUGGGCAGCGAGGAGUCCAC; listed as RNA, chemistry not given here)	Secreted PCSK9	29

# batch size: 2; output Secreted PCSK9 per entry
1. TG-06-125 (guide AGAAAGAGCAAGCCUCAUGU; listed as RNA, chemistry not given here)
2. TG-06-168 (guide GUGGGAAGGUUCGCGGGGUU; listed as RNA, chemistry not given here)

[46.11, 50.96]

###

Assign Percent reduction in PCSK9 secretion to each entry below.
# Test system: human PCSK9 locus
# Experiment Description: Secreted PCSK9 by ELISA in Huh7 cells transfected with mRNA and gRNA
# Assay type: cell-based
# Recorded Conditions: Huh7 cells, LTRP5-ADD-ZIM3 mRNA, 25 ng mRNA:12.5 ng gRNA, day 6, relative to non-targeting gRNA control
Give bare numbers, in %.

// solved cases for Percent reduction in PCSK9 secretion follow
Substance	Target System	Percent reduction in PCSK9 secretion [%]
TG-06-120 (guide CUCGGAAUCUGCUGUGCAUC; listed as RNA, chemistry not given here)	human PCSK9 locus	32.67
TG-06-140 (guide AAACUUAGCCUGGACCCCCU; listed as RNA, chemistry not given here)	human PCSK9 locus	15.87

Please report Percent reduction in PCSK9 secretion for every entry that follows.
1. TG-06-132 (guide AGAAGAUUCAAUUUGCAAAG; listed as RNA, chemistry not given here)
2. TG-06-150 (guide UCCCUCUGCGCGUAAUCUGA; listed as RNA, chemistry not given here)
3. TG-06-134 (guide GAAUUCUAUGGUAGGCACAA; listed as RNA, chemistry not given here)
4. TG-06-146 (guide GAAGUCUCACUGGUCAGCAG; listed as RNA, chemistry not given here)

1. 5.29
2. 44.42
3. 19.37
4. 71.45

Your task in this section: give Percent reduction in PCSK9 secretion for each listed record.
1. TG-06-155 (guide GCAGCGACGUCGAGGCGCUC; listed as RNA, chemistry not given here)
2. TG-06-127 (guide UCCUCCUGCCUGGUACACAA; listed as RNA, chemistry not given here)
3. TG-06-149 (guide AGCCCAGUUAGGAUUUGGGA; listed as RNA, chemistry not given here)

20.89
31.08
46.21

For the 7 substances below, give their Percent reduction in PCSK9 secretion values.
1. TG-06-145 (guide UGGGUCCACCUUGUCUCCUG; listed as RNA, chemistry not given here)
2. TG-06-004 (guide GCCAGGCCGUCCUCCUCGGA; listed as RNA, chemistry not given here)
3. TG-06-148 (guide GCCGGGCCCACCUUUUCAGU; listed as RNA, chemistry not given here)
4. TG-06-144 (guide GUGGGCAGCGAGGAGUCCAC; listed as RNA, chemistry not given here)
5. TG-06-161 (guide GCUCCUGCACAGUCCUCCCC; listed as RNA, chemistry not given here)
6. TG-06-139 (guide AGGAGCAGCUAGUUGGUAAG; listed as RNA, chemistry not given here)
7. TG-06-121 (guide GGAAGGGCUGUCGAUACUGG; listed as RNA, chemistry not given here)

1. 73.98
2. 2.54
3. 37.16
4. 59.29
5. 25.38
6. 64.28
7. 47.89

###

# Test system: human PCSK9 locus
# Experiment Description: Secreted PCSK9 by ELISA in Huh7 cells transfected with mRNA and gRNA
# Type: cell-based
# Recorded Conditions: Huh7 cells, LTRP5-ADD-ZIM3 mRNA + gRNA scaffold 316, 50 ng mRNA:25 ng gRNA, 6 days post-transfection, normalized to total cell count
Measurement Type: Secreted PCSK9 (ng/mL)
One number for each entry, in ng/mL.

Worked cases, answers included:
Substance	Target System	Endpoint Value
TG-06-145 (guide UGGGUCCACCUUGUCUCCUG; listed as RNA, chemistry not given here)	human PCSK9 locus	15.8
TG-06-126 (guide CCUUUUCAUCCUCCUGCCUG; listed as RNA, chemistry not given here)	human PCSK9 locus	23.48
TG-06-004 (guide GCCAGGCCGUCCUCCUCGGA; listed as RNA, chemistry not given here)	human PCSK9 locus	54.83

Find Secreted PCSK9 (human PCSK9 locus) for the entry TG-06-140 (guide AAACUUAGCCUGGACCCCCU; listed as RNA, chemistry not given here)
61.68

###

# Tested on: human PCSK9 locus
# Experiment Description: Secreted PCSK9 by ELISA in Huh7 cells transfected with mRNA and gRNA
# Format: cell-based
# Recorded Conditions: Huh7 cells, LTRP5-ADD-ZIM3 mRNA + gRNA scaffold 316, 25 ng mRNA:12.5 ng gRNA, 6 days post-transfection, normalized to total cell count
Measurement Type: Secreted PCSK9 (ng/mL)
One number for each entry, in ng/mL.

Worked examples follow.
Substance	Readout Units	Secreted PCSK9
TG-06-148 (guide GCCGGGCCCACCUUUUCAGU; listed as RNA, chemistry not given here)	ng/mL	44.77
TG-06-149 (guide AGCCCAGUUAGGAUUUGGGA; listed as RNA, chemistry not given here)	ng/mL	38.33
TG-06-170 (guide UCGGCCUCCGGGUCUCCCAA; listed as RNA, chemistry not given here)	ng/mL	72.96
TG-06-145 (guide UGGGUCCACCUUGUCUCCUG; listed as RNA, chemistry not given here)	ng/mL	18.54
TG-06-172 (guide GCUGAAACAGAUGGAAUACU; listed as RNA, chemistry not given here)	ng/mL	59.31

Would you be so kind as to report Secreted PCSK9 for each listed record?
1. TG-06-123 (guide UCCCAGUAUCGACAGCCCUU; listed as RNA, chemistry not given here)
2. TG-06-143 (guide GAAUCAAUCCUACUGUGGAC; listed as RNA, chemistry not given here)

1. 51.32
2. 22.33
